Field: Complex Half Life. Provide a value for each of the binders that follow.
- measurementTarget: T1, human LRRC15 extracellular domain with C-terminal His tag (human, UniProt Q8TF66 22-538)
- T1 construct: Recombinant, made in HEK293; the entry holds the extracellular domain and the His tag; SPR analyte; also called TPP-1545; hLRRC15 CT-His
- T1 sequence: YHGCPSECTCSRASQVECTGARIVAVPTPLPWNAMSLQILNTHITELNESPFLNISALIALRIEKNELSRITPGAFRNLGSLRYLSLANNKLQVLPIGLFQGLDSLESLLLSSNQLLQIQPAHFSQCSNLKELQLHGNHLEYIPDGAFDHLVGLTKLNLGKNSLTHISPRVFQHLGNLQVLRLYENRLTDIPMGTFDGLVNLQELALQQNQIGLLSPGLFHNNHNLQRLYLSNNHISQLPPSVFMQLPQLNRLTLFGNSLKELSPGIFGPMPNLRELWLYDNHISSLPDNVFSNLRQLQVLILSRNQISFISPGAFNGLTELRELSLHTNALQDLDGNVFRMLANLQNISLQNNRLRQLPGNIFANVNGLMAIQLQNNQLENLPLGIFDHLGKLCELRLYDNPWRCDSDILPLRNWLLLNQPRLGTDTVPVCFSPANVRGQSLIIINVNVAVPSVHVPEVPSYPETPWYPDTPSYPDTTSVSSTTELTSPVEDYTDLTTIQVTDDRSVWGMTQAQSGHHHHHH
- assayProtocol: calculated from SPR kd, 10°C
Lab book: enter the figure in h, no units written.

Incoming: So what's the measured Complex Half Life for this one? TPP-1633 (antibody, human IgG1, kappa, V domains shown, also called 060E-M016-G14-hIgG1) VH: EVQLLESGGGLVQPGGSLRLSCAASGFTFSGYMMQWVRQAPGKGLEWVSGIYPSGGYTNYADSVKGRFTISRDNSKNTLYLQMNSLRAEDTATYYCAREKASDLSGSYSEALDYWGQGTLVTVSS VL: DIQMTQSPDSLSASVGDRVTITCRASQDVGSWLAWYQQKPGKAPKLLIFAASSLESGIPSRFSGSGSGTDFTLTISSLQPEDFATYYCQQANGFPLTFGGGTKVEIKR
Outgoing: 0.138

Incoming: Repeat with TPP-17074 (antibody, human IgG1, kappa, V domains shown, also called 438H-M161-K22-hIgG1) VH: EVQLLESGGGLVQPGGSLRLSCAASGFTFSGYMMSWVRQAPGKGLEWVSGIYPSGGYALYADSVKGRFTISRDNSKNTLYLQMNSLRAEDTAVYYCAREKAADLFGSYSEALDYWGQGTLVTVSS VL: DIQMTQSPDSLSASVGDRVTITCRASQDVGSWLAWYQQKPGKAPKLLIFAASYLESGIPSRFSGSGSGTDFTLTISSLQPEDFATYYCQQANGFPLTFGGGTKVEIKR
Outgoing: 10.7

Incoming: Moving on to the next binder: TPP-17421 (antibody, human IgG1, kappa, V domains shown, also called 438H-M306-C11-hIgG1Kappa) VH: EVQLVQSGAEVKKPGASVKVSCKASGYKFSSYWIEWVKQAPGQGLEWIGEILPGSDWTNYNEKFKDRATFTSDTSINTAYMELSRLRSDDTAVYYCARDRGNYRAWFQYWGQGTLVTVSS VL: DIQMTQSPSSLSASVGDRVTITCRASQSISSYLNWYQQKPGGAPKFLIYYASSLQSGVPSRFSGSGSGTDYTLTISSLQPEDFATYYCQQGLELPWTFGGGTKVEIKR
Outgoing: 9.63
